Tested on: MDA-MB-231
Experiment: Cellular growth inhibition assay (CellTiter-Glo)
Format: cell-based
Conditions: Homo sapiens, 120 h; MDA-MB-231, 5 days; read-out: MDA-MB-231 EC50 (μM) 5 days
measured.property: EC50 (µM)
Field format: number, assumed µM, no unit text.

Example entries begin here.
INSERT INTO measurements (compound, measured_property, assay_value) VALUES
  ('C=CCn1c(=O)c2cnc(Nc3ccc(N4CCN(C(=O)c5cc(Cn6c(=O)[nH]c(=O)c7c(F)cccc76)ccc5F)CC4)cc3)nc2n1-c1cccc(C(C)(C)O)n1 [Compound 16]', 'EC50', 0.96),
  ('C=CCn1c(=O)c2cnc(Nc3ccc(N4CCN(C(=O)c5cc(Cc6n[nH]c(=O)c7ccccc67)ccc5F)CC4)cc3)nc2n1-c1ccccn1 [Compound 10]', 'EC50', 4.89),
  ('Cn1c(=O)c2cnc(Nc3ccc(N4CCCC(c5nc6cccc(C(N)=O)c6[nH]5)C4)cc3)nc2n1-c1ccccn1 (stereo not drawn) [Compound 96]', 'EC50', 2.77);

Okay, next one:
Q: Find the measured EC50: item Cn1c(=O)c2cnc(Nc3ccc(N4CCN(C(=O)c5cc(Cc6n[nH]c(=O)c7ccccc67)ccc5F)CC4)cc3)nc2n1-c1ccccn1 [Compound 3] , target or system MDA-MB-231.
Result: 3.75

Measured values drawn from patent US20250270212A1 for this set.
